Data provenance: patent US11111220B2

SUBJECT OF TEST: Human α2δ-1 Subunit of Cav2.2 Calcium Channel (Homo sapiens, UniProt P54289)
Sequence (P54289 25-1103): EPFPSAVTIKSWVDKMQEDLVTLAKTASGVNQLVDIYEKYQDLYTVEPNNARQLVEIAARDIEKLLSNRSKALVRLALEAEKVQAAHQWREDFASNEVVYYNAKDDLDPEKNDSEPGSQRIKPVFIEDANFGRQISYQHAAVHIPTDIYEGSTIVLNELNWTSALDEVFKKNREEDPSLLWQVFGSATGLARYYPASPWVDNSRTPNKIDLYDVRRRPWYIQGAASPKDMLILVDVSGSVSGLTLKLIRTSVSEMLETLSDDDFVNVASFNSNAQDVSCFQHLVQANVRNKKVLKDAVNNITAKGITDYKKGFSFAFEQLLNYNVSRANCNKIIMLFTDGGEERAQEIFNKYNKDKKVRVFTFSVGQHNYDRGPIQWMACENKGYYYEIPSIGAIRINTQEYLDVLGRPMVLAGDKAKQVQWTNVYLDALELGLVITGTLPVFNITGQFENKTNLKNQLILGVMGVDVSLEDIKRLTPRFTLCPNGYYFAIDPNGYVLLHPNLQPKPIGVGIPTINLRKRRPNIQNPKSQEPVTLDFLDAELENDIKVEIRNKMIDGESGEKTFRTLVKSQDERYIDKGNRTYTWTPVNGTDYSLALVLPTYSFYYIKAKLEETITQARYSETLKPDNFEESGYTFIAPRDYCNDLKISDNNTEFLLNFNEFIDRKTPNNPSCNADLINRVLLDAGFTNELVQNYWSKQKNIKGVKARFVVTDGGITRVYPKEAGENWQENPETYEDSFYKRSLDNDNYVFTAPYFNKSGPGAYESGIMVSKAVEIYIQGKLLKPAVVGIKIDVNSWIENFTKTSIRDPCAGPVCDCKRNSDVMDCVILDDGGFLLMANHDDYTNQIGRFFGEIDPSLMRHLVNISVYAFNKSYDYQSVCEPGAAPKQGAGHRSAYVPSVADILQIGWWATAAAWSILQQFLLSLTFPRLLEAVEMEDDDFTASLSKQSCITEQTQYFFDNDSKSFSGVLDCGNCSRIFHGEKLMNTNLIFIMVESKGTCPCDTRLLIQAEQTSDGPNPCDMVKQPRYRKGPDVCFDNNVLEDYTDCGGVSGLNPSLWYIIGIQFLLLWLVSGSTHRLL
EXPERIMENT DESCRIPTION: Binding assay to human α2δ-1 subunit of Cav2.2 calcium channel ([3H]-Gabapentin)
CONDITION PARAMETERS: Table 2 (dual compounds); human α2δ-1 enriched membranes, 15 nM [3H]-Gabapentin; read-out: Ki(nM) alpha2delta Hum
PROPERTY MEASURED: Ki

• CNCCC(OCc1cccc(NC(=O)c2cnc(OC)nc2)c1)c1ccccc1 (stereo not drawn) [Example 41] = ≥ 3000 nM
• CNCCC(Oc1cccc(C(=O)NCc2ccccn2)c1)c1ccccc1 (stereo not drawn) [Example 18] = ≥ 3000 nM
• CNCCC(OCc1cccc(NC(=O)c2ccccc2)c1)c1ccccc1 (stereo not drawn) [Example 39] = ≥ 3000 nM
• CNCCNC(=O)c1cccc(OC(CCNC)c2ccccc2)c1 (stereo not drawn) [Example 20] = 500 to 3000 nM
• CNCCC(OCc1cccc(Nc2ccccc2)c1)c1ccccc1 (stereo not drawn) [Example 58] = ≥ 3000 nM
• CNCCC(Oc1ccc(CNCc2ccccc2)c(F)c1)c1cccs1 (stereo not drawn) [Example 71] = ≥ 3000 nM
• CNCCC(Oc1ccc(CN(C)Cc2ccccc2)c(F)c1)c1cccs1 (stereo not drawn) [Example 70] = ≥ 3000 nM
• CCNc1ncc(C(=O)N(C)c2cccc(COC(CCNC)c3cccs3)c2)c(N2CCCC2)n1 (stereo not drawn) [Example 38] = 500 to 3000 nM
• CNCCC(OCc1cccc(NC(=O)c2ccccc2F)c1)c1cccs1 (stereo not drawn) [Example 48] = ≥ 3000 nM
• CNCCC(OCc1cccc(NC(=O)c2ccccc2)c1)c1cccs1 (stereo not drawn) [Example 46] = ≥ 3000 nM
• CNCCC(Oc1cccc(C(=O)NC2CCN(C)CC2)c1)c1ccccc1 (stereo not drawn) [Example 22] = 500 to 3000 nM
• CNCCC(Oc1cccc(C(=O)Nc2ccccc2)c1)c1ccccc1 (stereo not drawn) [Example 13] = ≥ 3000 nM
• CNCCC(OCc1cccc(NC(=O)c2ccccn2)c1)c1ccccc1 (stereo not drawn) [Example 43] = ≥ 3000 nM
• CNCCC(Oc1cccc(N(C)C(=O)c2cccc(CN)c2)c1)c1ccccc1 (stereo not drawn) [Example 27] = ≥ 3000 nM
• CNCCC(Oc1cccc(N(C)C(=O)CCCN)c1)c1ccccc1 (stereo not drawn) [Example 28] = ≥ 3000 nM
• CCNc1ncc(C(=O)Nc2cccc(OC(CCNC)c3ccccc3)c2)c(N2CCCC2)n1 (stereo not drawn) [Example 50] = ≥ 3000 nM
• CNCCC(Oc1cccc(C(=O)Nc2cccc(-c3nnc(C)o3)c2)c1)c1ccccc1 (stereo not drawn) [Example 14] = ≥ 3000 nM
• CNCCC(Oc1cccc(C(=O)Nc2cccnc2)c1)c1ccccc1 (stereo not drawn) [Example 15] = ≥ 3000 nM
• CNCCC(Oc1cccc(C(=O)NCc2ccccc2)c1)c1ccccc1 (stereo not drawn) [Example 17] = ≥ 3000 nM
• CNCCC(Oc1cccc(CN(C)Cc2ccccc2)c1)c1cccs1 (stereo not drawn) [Example 6] = 100 to 500 nM
• CNCCC(Oc1cccc(CNCc2ccccc2)c1)c1cccs1 (stereo not drawn) [Example 2] = 500 to 3000 nM
